The entries below come with measured IC50 values attached.
System: Human PBMCs
Test: Inhibition of antigen (PPD)-induced T lymphocyte proliferation of PBMCs
Assay type: cell-based
Details: PBMC, PPD 1 μg/ml, 72 hrs, tritiated thymidine, read-out: IC50, PBMCs stimulated with PPD
Give a bare numeral; the unit nM is implied.

[
  {
    "molecule": "C=CC[C@H](C(=O)NO)[C@@H](CC(C)C)C(=O)N[C@@H](Cc1ccccc1)C(=O)OC1CCCC1 [Example 19]",
    "tested.target": "Human PBMCs",
    "observed.result": 1100
  }
]

Q: Recall and state the measured IC50 for C=CC[C@H](C(=O)NO)[C@@H](CC(C)C)C(=O)N[C@@H](Cc1ccccc1)C(=O)OC [Example 1] .
Ans: 2000

Q: Recall and state the measured IC50 for C=CC[C@H](C(=O)NO)[C@@H](CC(C)C)C(=O)N[C@@H](Cc1ccccc1)C(=O)OC(C)C [Example 3] .
Ans: 1800
